Target: T1, MUC1 60-mer peptide NH2-(…)3-COOH (biotinylated in the ELISAs and selections)
T1 construct: also called biotinylated MUC1 60-mer
T1 sequence (peptide, as listed by the source): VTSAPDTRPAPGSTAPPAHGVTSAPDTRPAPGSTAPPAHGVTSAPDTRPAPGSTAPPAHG
Test: ELISA, soluble Fab, biotinylated MUC1 60-mer; relative signal
Protocol: Soluble Fabs were produced as described (Roovers et al., Br. J. Cancer, 78: 1407-16 (1998)). ELISAs were performed as described by Henderikx et al. (Cancer Res., 58: 4324-4332 (1998)), except the biotinylated MUC1 60-mer was used. The selected PH1 and the affinity-matured antibodies were evaluated for affinity by surface plasmon resonance (SPR) on a BIAcore 2000 apparatus (BIAcore AB, Uppsala, Sweden). […] The affinities of the Fabs were calculated according to a 1:1 stoichiometry at steady state.

binder	binding result
3B8 (Fab, V domains shown, PH1 Fab variant) VH: QVQLVQSGGGLVQPGGSLRLSCAASGFTFRSNAMGWVRQAPGKGLEWVSGISGSGGSTYYADSVKGRFTISRDNSKNTLYLQMNSLRAEDTAVYYCAKHTGAGVWDPIDYWGQGTLVTVSS VL: EIVLTQSPLSLPVTPGEPASISCRSSQSLLHSNGYTYLDWYLQKPGQSPQLLIYSGSHRASGVPDRFSGSVSGTDFTLRISRVEAEDVGVYYCMQGLQSPFTFGPGTKVDIKR	binds
3H1 (Fab, V domains shown, PH1 Fab variant) VH: QVQLVQSGGGLVQPGGSLRLSCAASGFTFRSNAMGWVRQAPGKGLEWVSGISGSGGSTYYADSVKGRFTISRDNSKNTLYLQMNSLRAEDTAVYYCAKHTGGGVWDPFAYWGQGTLVTVSS VL: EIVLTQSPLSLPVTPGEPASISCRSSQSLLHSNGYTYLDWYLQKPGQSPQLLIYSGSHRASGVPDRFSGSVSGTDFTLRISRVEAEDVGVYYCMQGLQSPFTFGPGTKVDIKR	binds
